Ref: patent US20090082262A1

Target: T1, chemokine receptor 1 (CCR1) (UniProt P56482 1-355)
T1 chain: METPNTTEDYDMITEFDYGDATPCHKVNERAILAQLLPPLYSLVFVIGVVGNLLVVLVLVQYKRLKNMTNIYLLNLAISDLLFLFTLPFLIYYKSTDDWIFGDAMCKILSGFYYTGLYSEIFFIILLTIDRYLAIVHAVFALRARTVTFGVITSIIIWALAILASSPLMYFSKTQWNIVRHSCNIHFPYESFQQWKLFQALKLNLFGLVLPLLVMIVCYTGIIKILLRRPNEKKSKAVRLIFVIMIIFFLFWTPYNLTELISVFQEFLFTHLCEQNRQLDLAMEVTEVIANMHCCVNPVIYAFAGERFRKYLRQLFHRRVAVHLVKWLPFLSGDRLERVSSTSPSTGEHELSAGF
Experiment: competition binding
Measured IC50 by item
VALUE_TYPE: IC50 (nM)

BINDER	VALUE_TYPE	MEASURED_RESULT
HCC-1[10-74] (ligand) PYHPSECCFTYTTYKIPRQRIMDYYETNSQCSKPGIVFITKRGHSVCTNPSDKWVQDYIKDMKEN	IC50	0.182
HCC-1[11-74] (ligand) YHPSECCFTYTTYKIPRQRIMDYYETNSQCSKPGIVFITKRGHSVCTNPSDKWVQDYIKDMKEN	IC50	5.07
RANTES (ligand) SPYSSDTTPCCFAYIARPLPRAHIKEYFYTSGKCSNPAVVFVTRKNRQVCANPEKKWVREYINSLEMS	IC50	0.166
